src = patent US9233979B2

biological target: phosphorylated active hERK2 enzyme (Homo sapiens (Human), UniProt P28482); experiment: Active Human ERK2 (hERK2) Activity Assay (IMAP-FP); assay type: biochemical; conditions: Table 6, 0.5 nM hERK2, 30 μM ATP, 10 point titration, read-out: AERK2 IC50
Sequence (P28482 whole entry): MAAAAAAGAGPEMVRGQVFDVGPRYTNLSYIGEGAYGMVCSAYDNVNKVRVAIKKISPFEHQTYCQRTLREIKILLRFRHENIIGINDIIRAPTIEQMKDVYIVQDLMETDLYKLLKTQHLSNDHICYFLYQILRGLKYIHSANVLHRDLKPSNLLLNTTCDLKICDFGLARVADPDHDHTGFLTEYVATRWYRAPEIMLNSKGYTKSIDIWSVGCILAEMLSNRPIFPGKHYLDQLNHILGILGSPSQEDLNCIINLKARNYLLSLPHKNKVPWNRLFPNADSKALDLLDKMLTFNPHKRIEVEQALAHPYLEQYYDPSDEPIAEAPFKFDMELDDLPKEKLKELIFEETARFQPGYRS
READOUT TYPE: pIC50
Answer as the number alone; pIC50 is minus log10 of concentration in mol/L.

Data request: Which pIC50 value is on record for C[C@@H](NC(=O)Nc1cc2[nH]nc(N)c2cn1)c1cccc(F)c1 ?
Data returned: 8.49

Data request: Need pIC50 of C[C@@H](NC(=O)Nc1cc2[nH]nc(NC(=O)N3C[C@H]4COC[C@H]4C3)c2cn1)c1ccc(F)cc1 , thanks.
Data returned: 7.84

Data request: Given C[C@@H](NC(=O)Nc1cc2[nH]nc(NC(=O)C3CC3)c2cn1)c1ccccc1 , state its recorded pIC50.
Data returned: 9.00

Data request: Would you mind telling me what pIC50 value was observed for C[C@@H](NC(=O)Nc1cc2[nH]nc(NC3CC(N(C)C)C3)c2cn1)c1ccccc1 (some centres unmarked) ?
Data returned: 7.30

Data request: Using the record for C[C@@H](NC(=O)Nc1cc2[nH]nc(NCC3CCCOC3)c2cn1)c1ccccc1 (some centres unmarked) , report its pIC50.
Data returned: 8.38

Data request: Would you kindly share the measured pIC50 for C[C@@H](NC(=O)Nc1cc2[nH]nc(NC(=O)Cc3ccccc3)c2cn1)c1ccccc1 ?
Data returned: 9.22

Data request: Look up pIC50: C[C@@H](NC(=O)Nc1cc2[nH]nc(NC(=O)CC(F)(F)F)c2cn1)c1ccccc1
Data returned: 8.96

Data request: I would be grateful if you could share the reported pIC50 for CCNc1n[nH]c2cc(NC(=O)NC(C)c3ccc(F)cn3)ncc12 (centres unmarked) .
Data returned: 7.48

###

target: phosphorylated active hERK2 enzyme (Homo sapiens (Human)); assay: Active Human ERK2 (hERK2) Activity Assay (IMAP-FP); type: biochemical; conditions: Table 6, 0.5 nM hERK2, 30 μM ATP, 10 point titration, read-out: AERK2 IC50
READOUT TYPE: IC50 (nM)
Quick note: give the figure in nM, leave out the unit.

Data request: State its IC50 on phosphorylated active hERK2 enzyme (Homo sapiens (Human)): CC(C)Nc1n[nH]c2cc(NC(=O)N[C@H](C)c3ccccc3)ncc12
Data returned: 1.5

Data request: Notebook entry, phosphorylated active hERK2 enzyme (Homo sapiens (Human)) assay: IC50 of Nc1n[nH]c2cc(NC(=O)NC3CNc4ccccc4C3)ncc12 (stereo not shown) = ?
Data returned: 37.5

Data request: Tell me reported IC50 for CC(=O)Nc1n[nH]c2cc(NC(=O)N[C@H](COC(F)F)c3ccccc3)ncc12 , tested with phosphorylated active hERK2 enzyme (Homo sapiens (Human)).
Data returned: 0.3

Data request: What reported IC50 corresponds to CC(C)OC(=O)Nc1n[nH]c2cc(NC(=O)N[C@@H](c3ccc(F)cc3)C(C)(C)O)ncc12 on phosphorylated active hERK2 enzyme (Homo sapiens (Human))?
Data returned: 1.1

###

biological target: phosphorylated active hERK2 enzyme (Homo sapiens (Human)); experiment: Active Human ERK2 (hERK2) Activity Assay (IMAP-FP); type: biochemical; details: Table 6, 0.5 nM hERK2, 30 μM ATP, 10 point titration, read-out: AERK2 IC50
READOUT TYPE: pIC50
# pIC50: negative log10 of molar concentration; output just the value

Data request: Please report the recorded pIC50 for Nc1n[nH]c2cc(NC(=O)N[C@@H]3CCOc4ccccc43)ncc12 [Example 258] .
Data returned: 6.99

Data request: Which pIC50 value is on record for O=C(Nc1cc2[nH]nc(NC(=O)N3CC(F)(F)C3)c2cn1)N[C@@H]1CCCOc2ccccc21 [Example 397] ?
Data returned: 8.36

Data request: So what does the record say about pIC50 for C[C@@H](NC(=O)Nc1cc2[nH]nc(N)c2cn1)C1CCCCC1 [Example 255] ?
Data returned: 7.74

Data request: For CCNc1n[nH]c2cc(NC(=O)N[C@@H](c3ccccc3)C3(O)CCCC3)ncc12 [Example 236] , what is its reported pIC50?
Data returned: 9.15

Data request: Report pIC50 for COC(=O)Nc1n[nH]c2cc(NC(=O)NCc3ccccc3OC(F)F)ncc12 [Example 296] please.
Data returned: 8.60

Data request: # get_value(readout='pIC50', item= CC(Nc1n[nH]c2cc(NC(=O)N[C@H](COC(F)F)c3ccccc3)ncc12)C(F)(F)F (some centres unmarked) [Example 428] )
Data returned: 8.89

Data request: Give the measured pIC50 of CC(Nc1n[nH]c2cc(NC(=O)N[C@H](C)c3ccccc3)ncc12)C1CCOCC1 (some centres unmarked) [Example 171] .
Data returned: 8.39

Data request: For C[C@@H](O)[C@@H](NC(=O)Nc1cc2[nH]nc(N3CC4CC3CO4)c2cn1)c1ccccc1 (some centres unmarked) [Example 111] , what is its reported pIC50?
Data returned: 9.30

Data request: Any idea what pIC50 was measured for CC(C)(O)[C@@H](NC(=O)Nc1cc2[nH]nc(N3CCOCC3)c2cn1)c1ccccc1 [Example 433] ?
Data returned: 9.30

Data request: Look at this compound and give its reported pIC50. C[C@@H](NC(=O)Nc1cc2[nH]nc(NC3CCC3)c2cn1)c1ccccc1 [Example 185]
Data returned: 8.82

Data request: Find the recorded pIC50 belonging to CCOC(=O)Nc1n[nH]c2cc(NC(=O)N[C@H](C)c3ccccc3)ncc12 [Example 315] and report it.
Data returned: 8.00

Data request: Dear colleague, I am looking for the recorded pIC50 of the following compound: CC(=O)N1CCc2nc(NC(=O)N[C@H](C)c3ccccc3)cc3[nH]nc1c23 [Example 140]
Data returned: 6.95

Data request: Fill in the blank: the reported pIC50 of C[C@@H](NC(=O)Nc1cc2[nH]nc(NC3CCCOC3)c2cn1)c1ccccc1 (some centres unmarked) [Example 174] is ____.
Data returned: 8.36

Data request: Given the entry CN(C)C[C@H](NC(=O)Nc1cc2[nH]nc(N)c2cn1)c1ccccc1 [Example 263] , report its measured pIC50.
Data returned: 6.90

Data request: Quick one: pIC50 for C[C@@H](NC(=O)Nc1cc2[nH]nc(NC(=O)CN(C)C)c2cn1)c1ccccc1 [Example 208] ?
Data returned: 7.56

Data request: Requested field: pIC50. Item: C[C@@H](NC(=O)Nc1cc2[nH]nc(N3CC4C5CCC(C)(O5)C4C3)c2cn1)c1ccc(F)cc1 (some centres unmarked) [Example 376]
Data returned: 7.86

Data request: Which pIC50 reading was recorded for the compound Nc1n[nH]c2cc(NC(=O)N[C@H](CO)c3ccccc3)ncc12 [Example 375] ?
Data returned: 8.60
